Each recorded value in this set is attributed to patent US20170362301A1.

target: EGFR (form in the assay not stated) (human, UniProt P00533 25-645, limits assumed); test: ELISA, NEM conjugate 500 nM
assay_readout: binding ratio vs parent P54AR4-83v2 (ratio)
# output: bare number, implied unit ratio

{"columns": ["binder", "result_unit", "reported"],
 "data": [
  ["P54AR4-83v2 T59C, NEM conjugate (designed binder, NEM on Cys 59, His-tagged) LPAPKNLVVSEVTEDSARLSWDDPWAFYESFLIQYQESEKVGEAIVLTVPGSERSYDLCGLKPGTEYTVSIYGVHNVYKDTNMRGLPLSAIFTT", "ratio", 0.93],
  ["P54AR4-83v2 G85C, NEM conjugate (designed binder, NEM on Cys 85, His-tagged) LPAPKNLVVSEVTEDSARLSWDDPWAFYESFLIQYQESEKVGEAIVLTVPGSERSYDLTGLKPGTEYTVSIYGVHNVYKDTNMRCLPLSAIFTT", "ratio", 0.29],
  ["P54AR4-83v2 G60C, NEM conjugate (designed binder, NEM on Cys 60, His-tagged) LPAPKNLVVSEVTEDSARLSWDDPWAFYESFLIQYQESEKVGEAIVLTVPGSERSYDLTCLKPGTEYTVSIYGVHNVYKDTNMRGLPLSAIFTT", "ratio", 0.93]
]}

Reported binding ratio vs parent P54AR4-83v2 for P54AR4-83v2 N6C, NEM conjugate (designed binder, NEM on Cys 6, His-tagged) LPAPKCLVVSEVTEDSARLSWDDPWAFYESFLIQYQESEKVGEAIVLTVPGSERSYDLTGLKPGTEYTVSIYGVHNVYKDTNMRGLPLSAIFTT : what is it? 0.89

// lookup binding ratio vs parent P54AR4-83v2 for P54AR4-83v2 G64C, NEM conjugate (designed binder, NEM on Cys 64, His-tagged) LPAPKNLVVSEVTEDSARLSWDDPWAFYESFLIQYQESEKVGEAIVLTVPGSERSYDLTGLKPCTEYTVSIYGVHNVYKDTNMRGLPLSAIFTT 1.36

// query binding ratio vs parent P54AR4-83v2 value for entry P54AR4-83v2 F27C, NEM conjugate (designed binder, NEM on Cys 27, His-tagged) LPAPKNLVVSEVTEDSARLSWDDPWACYESFLIQYQESEKVGEAIVLTVPGSERSYDLTGLKPGTEYTVSIYGVHNVYKDTNMRGLPLSAIFTT 0.23

Which value of binding ratio vs parent P54AR4-83v2 has been reported for P54AR4-83v2 P63C, NEM conjugate (designed binder, NEM on Cys 63, His-tagged) LPAPKNLVVSEVTEDSARLSWDDPWAFYESFLIQYQESEKVGEAIVLTVPGSERSYDLTGLKCGTEYTVSIYGVHNVYKDTNMRGLPLSAIFTT in the records? 0.92

Can you share its binding ratio vs parent P54AR4-83v2? I mean this binder: P54AR4-83v2 S55C, NEM conjugate (designed binder, NEM on Cys 55, His-tagged) LPAPKNLVVSEVTEDSARLSWDDPWAFYESFLIQYQESEKVGEAIVLTVPGSERCYDLTGLKPGTEYTVSIYGVHNVYKDTNMRGLPLSAIFTT 0.11

Need binding ratio vs parent P54AR4-83v2, item P54AR4-83v2 E39C, NEM conjugate (designed binder, NEM on Cys 39, His-tagged) LPAPKNLVVSEVTEDSARLSWDDPWAFYESFLIQYQESCKVGEAIVLTVPGSERSYDLTGLKPGTEYTVSIYGVHNVYKDTNMRGLPLSAIFTT 0.9
